Tested on: SF-268 CNS
method.notes: NCI tumour cell line growth inhibition, 48 h; in the data active means GI50 below about 0.43 µM; inactive means the rest
Possible outcomes: 1 = active, -1 = inactive

[[record]]
structure_notation = "CCN(CC)CCOc1ccc(Nc2ncc3cc(-c4c(Cl)cccc4Cl)c(=O)n(CCOC)c3n2)cc1"
class = 1

[[record]]
structure_notation = "Cn1c(=O)c(Oc2cccc(F)c2)cc2cnc(NC3CCOCC3)nc21"
class = -1

[[record]]
structure_notation = "COc1cc(N=Nc2ccccc2)cc(/C=N\\[N-]C(N)=S)c1[O-].COc1cc(N=Nc2ccccc2)cc(/C=N\\[N-]C(N)=S)c1[O-].[Fe+4]"
class = -1

[[record]]
structure_notation = "Cc1ccc2c[c]1[Hg][CH2]COS2(=O)=O"
class = -1

[[record]]
structure_notation = "N#Cc1cccc(C(=O)c2cnn(-c3ccc(F)cc3)c2N)c1"
class = -1


---

Test system: SK-MEL-28 melanoma
method.notes: NCI tumour cell line growth inhibition, 48 h
Where a SMILES comes first, the peptide text is derived from it. [ ]: non-standard residue; d: D form. The star is where a group is joined. ξ: configuration not given here. ξD = NC(CC(=O)O)C(=O)O; Ac3c = NC1(C(=O)O)CC1; Boc = CC(C)(C)OC(=O)*; OBn = c1ccc(CO*)cc1
Below, each entry is listed with its recorded TGI.
experimental.readout: TGI (µM)

[[record]]
compound = "COC(=O)C1(NC(=O)C(CC(=O)OCc2ccccc2)NC(=O)OC(C)(C)C)CC1 (centres undefined) (Boc-[ξD](OBn)-[Ac3c]-OMe)"
scale_unit = "µM"
reported_relation = ">"
recorded_value = 100

[[record]]
compound = "N#CCCN(CCC#N)c1ccc(/C=C2\\N=C(COc3ccc(Cl)cc3Cl)OC2=O)cc1"
scale_unit = "µM"
reported_relation = ">"
recorded_value = 100

[[record]]
compound = "OCC(Cn1cncn1)(c1ccc(F)cc1F)n1cncn1 (centres undefined)"
scale_unit = "µM"
reported_relation = ">"
recorded_value = 100

[[record]]
compound = "CC1CC[C@@]2(OC1)O[C@H]1C[C@H]3[C@@H]4CC[C@H]5C[C@@H](OC6OC(CO)C(OC7OC(CO)C(OC8OC(CO)C(O)C(OC9OC(C)C(OC%10OC(C)C(O)C(O)C%10O)C(O)C9O)C8OC8OCC(O)C(O)C8O)C(O)C7O)C(O)C6O)CC[C@]5(C)[C@H]4CC(=O)[C@]3(C)[C@H]1[C@@H]2C (some centres undefined)"
scale_unit = "µM"
reported_relation = "="
recorded_value = 34.3

[[record]]
compound = "CC1=C(SCc2ccccc2)C(=O)c2ccccc2C1=O"
scale_unit = "µM"
reported_relation = "="
recorded_value = 36.5

[[record]]
compound = "ON(CCc1ccncc1)Cc1ccccc1"
scale_unit = "µM"
reported_relation = ">"
recorded_value = 100

[[record]]
compound = "CN(C)C(=S)NN=C(c1ccccn1)c1ccccn1"
scale_unit = "µM"
reported_relation = "="
recorded_value = 18.2

[[record]]
compound = "COC(=O)Nc1nc2ccc(Oc3ccc(NC(=O)Nc4cccc(Br)c4)cc3)cc2[nH]1"
scale_unit = "µM"
reported_relation = "="
recorded_value = 7.7

[[record]]
compound = "O=[N+]([O-])c1cc(O)c(O)cc1-c1cn2ccsc2n1"
scale_unit = "µM"
reported_relation = ">"
recorded_value = 100

